Tested Target: Kdn(a2-6)Gal(b1-4)GlcNAc
Assay Comment: glycan array binding signal (z-score within array); higher = stronger binding
Condition Label: glycan notation: IUPAC condensed, linker removed
This excerpt belongs to a sample that is enriched for the strongest signals.
Assignment: determine reported glycan array binding signal (z-score) for the given binders.
Enter a number only.

Prompt: So what does the record say about glycan array binding signal (z-score) for CD34 (Homo sapiens), P28906 (protein) MGSSHHHHHHSSGLVPRGSHMSTSLATSPTKPYTSSSPILSDIKAEIKCSGIREVKLTQGICLEQNKTSSCAEFKKDRGEGLARVLCGEEQADADAGAQVCSLLLAQSEVRPQCLLLVLANRTEISSKLQLMKKHQSDLKKLGILDFTEQDVASHQSYSQKT ?
Response: -0.352

Prompt: So what does the record say about glycan array binding signal (z-score) for HPL (Tachypleus tridentatus) (protein) MEDDCTCVTDRSLEGKLMKHPSTPAVYQILDGCRRLVPNPPTYNNIYKNWECIQSNILEKLLCKCDSLSNGAELIKGSGDTVYLLSNGVKRPIADPETFNGFCFDWNKIKTYSDIVINSLSTGPIIIIKHHHHHH ?
Response: -0.279

Prompt: So what does the record say about glycan array binding signal (z-score) for EULS2 M3 (Oryza sativa) (protein) MVYCRANPNYAMTARNGAVVLAPANPKDEYQHWIKDMRWSTSIKDEEGYPAFALVNKATGQAIKHSLGQSHPVRLVPYNPEVMDESVLWTESRDVGNGFRCIRMVNNIYLNFDAFHGDKYHGGVRDGTDIVLWKLCEGDSLRWKIQPYYILEQKLISEEDLNSAVDHHHHHH ?
Response: -0.599

Prompt: So what does the record say about glycan array binding signal (z-score) for CTLY 1 (Homo sapiens), Q6ZS10 (protein) AITCPEGWLPFEGKCYYFSPSTKSWDEARMFCQENYSHLVIINSFAEHNFVAKAHGSPRVYWLGLNDRAQEGDWRWLDGSPVTLSFWEPEEPNNIHDEDCATMNKGGTWNDLSCYKTTYWICERKGLNDIFEAQKIEWHE ?
Response: -0.232

Where do the numbers come from? From the supplement of paper PMC8728848.
